# testSystem: T1, Human Notch4-NRR domain Fc fusion protein (human, UniProt Q99466 1046-1445, limits assumed)
# T1 construct: Expressed in a CHO cell line, used from culture supernatant; 1 is named; also called Human Notch4-NRR Fusion Protein; not shown: Fc
# T1 sequence: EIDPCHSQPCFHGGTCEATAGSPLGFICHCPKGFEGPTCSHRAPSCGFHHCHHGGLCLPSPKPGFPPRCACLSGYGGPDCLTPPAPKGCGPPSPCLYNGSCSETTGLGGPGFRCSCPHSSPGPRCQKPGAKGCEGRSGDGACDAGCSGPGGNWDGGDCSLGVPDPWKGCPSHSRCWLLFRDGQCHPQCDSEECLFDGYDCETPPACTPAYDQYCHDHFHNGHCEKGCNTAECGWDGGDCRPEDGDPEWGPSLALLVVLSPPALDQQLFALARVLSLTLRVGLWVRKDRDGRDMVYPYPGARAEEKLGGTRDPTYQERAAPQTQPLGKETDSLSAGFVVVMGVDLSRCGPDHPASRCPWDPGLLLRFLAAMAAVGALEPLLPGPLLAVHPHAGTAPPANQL
# testProtocol: SPR (Biacore) as for Table 30; Notch4-NRR-Fc captured, antibody injected; averaged, N=4

binder | kon
HK3L2 (antibody, human IgG2, kappa, V domains shown, Humanized IgG2 (V234A, G237A)/κ; also called No. 17) VH: EVQLVESGGGLVQPGGSLRLSCAASGFTFSSYGMSWVRQAPGKGLELVATINSNGGRTYYPDSVKGRFTISRDNSKNTLYLQMGSLKAEDMAVYYCARDQGFAYWGQGTLVTVSS VL: DIQMTQSPSSLSASVGDRVTITCKASQDVGTAVAWYQQKPGKVPKLLIYWASTRHTGVPSRFSGSGSGTDFTLTISSLQPEDVATYFCQQYSSYPWTFGQGTKVEIKR | 1.13e+06 M⁻¹ s⁻¹
HK2L2 (antibody, human IgG2, kappa, V domains shown, Humanized IgG2 (V234A, G237A)/κ; also called No. 12) VH: EVQLVESGGGLVQPGGSLRLSCAASGFTFSSYGMSWVRQAPGKGLELVSTINSNGGRTYYPDSVKGRFTISRDNSKNTLYLQMGSLRAEDMAVYYCARDQGFAYWGQGTLVTVSS VL: DIQMTQSPSSLSASVGDRVTITCKASQDVGTAVAWYQQKPGKVPKLLIYWASTRHTGVPSRFSGSGSGTDFTLTISSLQPEDVATYFCQQYSSYPWTFGQGTKVEIKR | 1.23e+06 M⁻¹ s⁻¹
